// provenance: a melting point compilation (Tetko et al.; mined from patent text by program, amines drawn as free bases though some values may be those of a salt)

Collected melting point values appear next to each entry.

1) CC(=O)SCC(Cc1ccccc1)C(=O)Nc1cc(C(=O)O)ccc1CN1CCCC1 (centres undefined) :: 95 to 98 °C
2) COc1ccc(-c2ccc(CC3CC=CC3)cc2)cc1 :: 75 to 77 °C
3) O=C(Cc1ccccc1Cl)Nc1ccc(C(=O)N2Cc3ccccc3Cc3ccccc32)cc1 :: 191 to 194 °C

Now take the following compound into account.
Using the record for CC1(C)CN(C2CC3(C)C(CCC4C3CCC3(C)C(C(=O)CO)CCC43)CC2O)CCO1 (centres undefined) , report its melting point. 184 to 186 °C

====

Collected melting point values appear next to each entry.

Examples from the recorded data:
1. CC(C)(CO)C(=O)N(O)Cc1ccccc1Cl :: 130 to 132 °C
2. N#CCC1NC(=O)C(Cc2ccccc2)NC1=O (stereo unspecified) :: 255 to 256 °C
3. Cc1ccc(C2COc3c(ccc(O)c3C)C2)cc1 (stereo unspecified) :: 136 to 137 °C
4. Cc1ccc(C2=CCCNC2)nc1C :: 102 to 104 °C
5. CCOC(=O)c1sc2ccc(O)c(C=O)c2c1Cl :: 128 to 130 °C
6. CCOC(=O)C(Cc1ccc(OC)cc1)c1cc2cc(C#N)ccc2s1 (stereo unspecified) :: 93 to 96 °C
7. CC1C=CCCC1C1OC(=O)NC1=O (stereo unspecified) :: 97 to 103 °C
8. O=C1Cc2cc(C(=O)CCl)c(Br)cc2N1 :: 238 to 239 °C

Using the record for Cc1nc2c(N)cc(Br)cc2n1C , report its melting point. 206 to 209 °C

Can you handle CCOC(=O)C1=C2CC=CC=C2N(C(=O)OCC)CCC1 next? 60 °C

Can you handle Cc1cc2cn[nH]c2c(C(=O)NC(C)C)c1NC(=O)c1cc(C(F)F)nn1-c1ncccc1Cl next? 250 to 253 °C
